Test system: Glial cell
Assay: Antiinflammatory activity in C57BL/6J mouse primary glial cells assessed as decrease in LPS-induced IL-1 mRNA level at 200 nM preincubated for 24 hrs followed by LPS stimulation by qPCR analysis
Assay type: functional, cell-based
Active and inactive are the calls of the source. No cut-off for these calls is given here.
Possible outcomes: label 1 = active, label 0 = inactive

[
  {
    "Record smiles": "C[C@@H]1O[C@@H](O[C@H]2C[C@@H](O)[C@]3(CO)[C@H]4[C@H](O)C[C@]5(C)[C@@H](C6=CC(=O)OC6)CC[C@]5(O)[C@@H]4CC[C@]3(O)C2)[C@H](O)[C@H](O)[C@H]1O",
    "Category label": "label 1"
  },
  {
    "Record smiles": "C[C@@H]1O[C@@H](O[C@H]2CC[C@]3(CO)[C@H]4CC[C@]5(C)[C@@H](C6=CC(=O)OC6)CC[C@]5(O)[C@@H]4CC[C@]3(O)C2)[C@H](O)[C@H](O)[C@H]1O",
    "Category label": "label 1"
  },
  {
    "Record smiles": "C[C@]12C[C@H]3O[C@H]4C[C@H](O)C[C@@]5(O)CC[C@H]([C@H]3[C@@]45CO)[C@@]1(O)CC[C@@H]2C1=CC(=O)OC1",
    "Category label": "label 0"
  },
  {
    "Record smiles": "C[C@@H]1O[C@@H](O[C@H]2C[C@@H]3O[C@@H]4C[C@]5(C)[C@@H](C6=CC(=O)OC6)CC[C@]5(O)[C@@H]5CC[C@](O)(C2)[C@@]3(CO)[C@H]54)[C@H](O)[C@H](O)[C@H]1O",
    "Category label": "label 1"
  }
]

// data source = ChEMBL document CHEMBL5357067
